Recorded measurements of pKi, one per entry
# target.entity: UniProt:Q62053
# Sequence (Q62053 whole entry): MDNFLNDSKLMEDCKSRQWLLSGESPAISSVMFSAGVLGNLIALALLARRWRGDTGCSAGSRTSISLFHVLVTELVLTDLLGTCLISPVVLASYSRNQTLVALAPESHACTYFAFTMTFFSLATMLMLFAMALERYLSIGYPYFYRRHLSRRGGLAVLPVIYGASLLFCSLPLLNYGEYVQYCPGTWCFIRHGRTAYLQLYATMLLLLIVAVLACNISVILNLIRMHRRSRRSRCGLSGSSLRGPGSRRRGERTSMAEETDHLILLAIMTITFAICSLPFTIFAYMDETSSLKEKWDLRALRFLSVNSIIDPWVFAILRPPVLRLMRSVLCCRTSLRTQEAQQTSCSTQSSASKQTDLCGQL
Convention used: pKi is expressed as -log10 of the molar concentration.

Use these answered entries as a reference point.
# molecule, numeric.value
records = [
    ("CCC1(C(O)C/C=C/[C@H]2[C@H](O)CC(=O)[C@@H]2C/C=C\\CCCC(=O)O)CCC1 (some centres unmarked)", 7.52),
    ("C=CCC1(C(O)C/C=C/[C@H]2[C@H](O)CC(=O)[C@@H]2C/C=C\\CCCC(=O)O)CCC1 (some centres unmarked)", 7.49),
    ("O=C(O)CCC/C=C\\C[C@@H]1[C@@H](/C=C/CC(O)C2(CC3CC3)CCC2)[C@H](O)C[C@H]1Cl (some centres unmarked)", 9.05),
]

In: Param request: pKi | system UniProt:Q62053 | item C=C1C[C@@H](O)[C@H](/C=C/CC(O)C2(CCC)CCC2)[C@H]1C/C=C\CCCC(=O)O (some centres unmarked)
Out: 6.43

In: Provide pKi, tested on UniProt:Q62053, for C=CCCC1(C(O)C/C=C/[C@H]2[C@H](O)CC(=O)[C@@H]2C/C=C\CCCC(=O)O)CCC1 (some centres unmarked) .
Out: 7.44
